- target desc: F. trinervia PEPC (Flaveria trinervia)
- Construct: the full-length ppcA gene of PEPC from F. trinervia (EMBL-Bank X61304); made in house; host or cells: Escherichia coli BL21(DE3)
- Sequence (P30694 whole entry): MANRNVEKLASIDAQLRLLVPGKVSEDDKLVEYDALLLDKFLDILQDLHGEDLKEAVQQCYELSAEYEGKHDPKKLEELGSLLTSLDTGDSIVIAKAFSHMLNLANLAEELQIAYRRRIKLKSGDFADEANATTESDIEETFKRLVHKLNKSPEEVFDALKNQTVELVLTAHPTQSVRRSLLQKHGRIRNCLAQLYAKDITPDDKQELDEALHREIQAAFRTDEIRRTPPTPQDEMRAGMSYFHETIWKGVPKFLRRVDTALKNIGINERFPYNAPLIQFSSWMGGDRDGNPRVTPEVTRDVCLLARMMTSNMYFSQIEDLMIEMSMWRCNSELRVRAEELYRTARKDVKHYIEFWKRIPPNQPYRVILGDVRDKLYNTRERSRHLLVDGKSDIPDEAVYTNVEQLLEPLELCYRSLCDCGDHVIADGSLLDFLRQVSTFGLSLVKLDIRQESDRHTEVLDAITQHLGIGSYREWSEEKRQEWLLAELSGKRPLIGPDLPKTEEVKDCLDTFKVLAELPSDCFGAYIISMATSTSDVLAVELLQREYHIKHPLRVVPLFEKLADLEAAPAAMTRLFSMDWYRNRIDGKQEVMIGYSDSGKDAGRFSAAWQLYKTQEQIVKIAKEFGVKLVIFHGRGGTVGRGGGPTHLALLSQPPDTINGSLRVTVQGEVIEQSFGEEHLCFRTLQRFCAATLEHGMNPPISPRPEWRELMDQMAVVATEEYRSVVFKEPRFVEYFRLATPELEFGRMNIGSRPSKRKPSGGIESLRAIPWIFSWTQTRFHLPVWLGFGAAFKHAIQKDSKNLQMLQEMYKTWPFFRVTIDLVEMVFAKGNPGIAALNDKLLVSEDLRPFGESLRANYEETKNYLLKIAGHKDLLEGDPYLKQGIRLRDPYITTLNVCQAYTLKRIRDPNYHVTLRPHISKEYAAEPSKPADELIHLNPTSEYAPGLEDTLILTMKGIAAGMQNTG
- protocol: biochemical
- Type: biochemical
- measurement setup: C4 PEPC over C3 isoform
Exercise: state measured Selectivity C4/C3 for each of the molecules provided.
Hi! Could you send only the number? It should be in fold, unit omitted.

Give its Selectivity C4/C3 value. Item: O=C(/C=C/c1ccccc1)c1ccc(O)c(O)c1O [Compound 10, 2′,3′,4′-Trihydroxychalcone]
15

Which Selectivity C4/C3 is listed for O=C(/C=C/c1ccc(O)c(O)c1)c1c(O)cc(O)cc1O [Compound 11, 2′,4′,6′,3,4-Pentahydroxy-chalcone] ?
3.3

Please look up its Selectivity C4/C3: O=C(/C=C/c1ccc(O)cc1)c1ccccc1O [Compound 3, 2′,4-Dihydroxychalcone]
1.6

Param item = O=C(/C=C/c1ccccc1)c1ccccc1 [Compound 1, trans-Chalcone] ; retrieve measured Selectivity C4/C3.
1.5

// lookup Selectivity C4/C3 for O=C(/C=C/c1ccc(O)cc1)c1ccc(O)cc1O [Compound 6, 2′,4′,4-Trihydroxychalcone]
1.5

# lookup: Selectivity C4/C3 of O=C(/C=C/c1ccc(O)c(O)c1)c1ccc(O)cc1O [Compound 8, 2′,4′,3,4-Tetrahydroxy-chalcone]
29

Form field: reported Selectivity C4/C3 of O=C(/C=C/c1ccccc1)c1ccc(O)cc1O [Compound 4, 2′,4′-Dihydroxychalcone]
2.1

Name the recorded Selectivity C4/C3 for O=C(/C=C/c1cc(O)c(O)c(O)c1)c1ccc(O)cc1O [Compound 9, 2′,4′,3,4,5-Pentahydroxychalcone] .
8.1

Which Selectivity C4/C3 value is on record for O=C(/C=C/c1ccccc1O)c1ccc(O)cc1O [Compound 7, 2′,4′,2-Trihydroxychalcone] ?
2.3

Consider the molecule O=C(/C=C/c1ccccc1)c1ccccc1O [Compound 2, 2′-Hydroxychalcone] and give its measured Selectivity C4/C3.
1.5

====

Give measured pIC50 for each item. Keep answers brief.
- target desc: F. pringlei PEPC (Flaveria pringlei)
- Construct: the full-length ppcA gene of PEPC from F. trinervia (EMBL-Bank X61304) and F. pringlei (EMBL-Bank Z48966) were cloned in pETEV16b; made in house; host or cells: Escherichia coli BL21-Gold(DE3)
- Sequence (Q01647 1-967): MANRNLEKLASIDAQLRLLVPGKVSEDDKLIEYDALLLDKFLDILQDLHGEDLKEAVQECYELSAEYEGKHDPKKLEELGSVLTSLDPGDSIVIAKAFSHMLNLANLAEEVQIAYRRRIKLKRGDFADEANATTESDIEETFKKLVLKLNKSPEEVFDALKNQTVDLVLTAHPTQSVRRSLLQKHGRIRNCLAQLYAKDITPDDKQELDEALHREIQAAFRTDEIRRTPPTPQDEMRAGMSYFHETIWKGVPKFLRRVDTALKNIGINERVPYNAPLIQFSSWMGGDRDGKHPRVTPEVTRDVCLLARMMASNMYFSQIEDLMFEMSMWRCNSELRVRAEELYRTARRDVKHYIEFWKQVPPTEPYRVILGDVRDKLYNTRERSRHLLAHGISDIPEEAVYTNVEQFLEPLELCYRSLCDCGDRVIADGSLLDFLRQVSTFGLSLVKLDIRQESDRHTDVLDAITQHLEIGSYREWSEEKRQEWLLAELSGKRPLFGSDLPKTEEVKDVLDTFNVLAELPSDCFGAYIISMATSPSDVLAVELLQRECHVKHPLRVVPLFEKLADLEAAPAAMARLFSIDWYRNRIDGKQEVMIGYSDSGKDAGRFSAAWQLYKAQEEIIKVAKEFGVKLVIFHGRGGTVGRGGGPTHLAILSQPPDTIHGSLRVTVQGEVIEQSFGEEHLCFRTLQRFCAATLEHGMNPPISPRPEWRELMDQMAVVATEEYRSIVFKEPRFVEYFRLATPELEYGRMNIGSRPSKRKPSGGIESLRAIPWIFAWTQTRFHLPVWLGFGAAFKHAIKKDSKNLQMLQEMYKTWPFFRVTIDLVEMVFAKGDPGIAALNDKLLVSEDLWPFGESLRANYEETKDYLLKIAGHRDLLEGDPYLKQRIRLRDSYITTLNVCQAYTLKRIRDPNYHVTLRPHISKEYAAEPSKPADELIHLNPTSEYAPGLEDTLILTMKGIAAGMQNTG
- protocol: PEPC coupled spectrophotometric assay, C3 PEPC
- Format: biochemical
- measurement setup: IC50 F. pringlei PEPC
Keep in mind that pIC50 stands for -log10 of concentration in molar terms.

Which value of pIC50 has been reported for O=C(/C=C/c1ccc(O)c(O)c1)c1ccc(O)c(O)c1O [Compound 12, 2′,3′,4′,3,4-Pentahydroxy-chalcone] in the records?
4.57

Please look up its pIC50: O=C(/C=C/c1ccc(O)cc1)c1ccc(O)cc1O [Compound 6, 2′,4′,4-Trihydroxychalcone]
4.24

Entry under review: O=C(/C=C/c1ccccc1)c1ccccc1O [Compound 2, 2′-Hydroxychalcone] . Reported pIC50?
4.12

Which measured pIC50 value corresponds to O=C(/C=C/c1ccccc1)c1ccccc1 [Compound 1, trans-Chalcone] ?
3.92
